Would you mind telling me the reported protein stability index of each entry?
B1: FBXO3 (parent)
chain: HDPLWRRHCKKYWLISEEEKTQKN

Variants of: B1
Assay: protein stability index of a GFP-peptide fusion (GPS, HEK-293T) (PSI 1-6); higher = more stable;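 further: lentivirally expressed fusions sorted by FACS into six bins by GFP to DsRed ratio, PSI derived from sequencing read proportions per bin multiplied by bin number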
Recorded Conditions: c terminus: a fixed tail appended

For reference, reported protein stability index for `R6V` stands at 2.98

For reference, reported protein stability index for `H8R` stands at 3

For reference, reported protein stability index for `E17G` stands at 3

For reference, reported protein stability index for `T21S` stands at 3.03

For reference, reported protein stability index for `Q22S` stands at 2.97

For reference, reported protein stability index for `E18Q` stands at 2.94

For reference, reported protein stability index for `E17R` stands at 3

Reference source: the supplement of paper PMC10567573
